Attribution: paper doi:10.1101/2021.08.24.457553v1

system.tested: PfPKG (Plasmodium falciparum)
pIC50: −log10 of the molar value.
quantity.kind: pIC50

a: Cc1cn(-c2ccnc(N[C@@H]3CCN(C(=O)c4nccs4)C3)n2)c(-c2cccc(OC(F)(F)F)c2)n1 [18d]
b: Cc1cn(-c2ccnc(N[C@@H]3CCN(C(=O)c4ccn(C)n4)C3)n2)c(-c2ccccc2)n1 [10b]
Between a and b , whose measured pIC50 reads higher? Please indicate the selected item by its label.
a

###

system.tested: 2C9 (Homo sapiens, UniProt P11712)
Sequence (P11712 whole entry): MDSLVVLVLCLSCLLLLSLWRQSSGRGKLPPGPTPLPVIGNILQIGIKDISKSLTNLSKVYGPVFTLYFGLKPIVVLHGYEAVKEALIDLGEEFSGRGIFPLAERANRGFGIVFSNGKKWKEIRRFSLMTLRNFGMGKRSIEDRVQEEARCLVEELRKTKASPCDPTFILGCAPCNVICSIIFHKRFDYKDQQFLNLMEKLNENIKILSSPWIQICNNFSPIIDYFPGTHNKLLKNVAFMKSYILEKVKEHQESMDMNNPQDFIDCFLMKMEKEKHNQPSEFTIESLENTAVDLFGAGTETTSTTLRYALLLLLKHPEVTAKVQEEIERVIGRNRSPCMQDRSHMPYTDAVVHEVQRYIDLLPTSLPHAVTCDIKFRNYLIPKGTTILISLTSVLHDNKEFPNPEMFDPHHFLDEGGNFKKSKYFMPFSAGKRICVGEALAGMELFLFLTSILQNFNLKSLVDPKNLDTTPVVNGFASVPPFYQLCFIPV
pIC50: −log10 of the molar value.
quantity.kind: pIC50

Name the recorded pIC50 for Cc1cn(-c2ccnc(N[C@@H]3CCN(C(=O)c4nccs4)C3)n2)c(-c2ccccc2)n1 [10a] .
< 5.00

###

system.tested: CYP3A4 (Homo sapiens, UniProt P08684)
Sequence (P08684 2-503): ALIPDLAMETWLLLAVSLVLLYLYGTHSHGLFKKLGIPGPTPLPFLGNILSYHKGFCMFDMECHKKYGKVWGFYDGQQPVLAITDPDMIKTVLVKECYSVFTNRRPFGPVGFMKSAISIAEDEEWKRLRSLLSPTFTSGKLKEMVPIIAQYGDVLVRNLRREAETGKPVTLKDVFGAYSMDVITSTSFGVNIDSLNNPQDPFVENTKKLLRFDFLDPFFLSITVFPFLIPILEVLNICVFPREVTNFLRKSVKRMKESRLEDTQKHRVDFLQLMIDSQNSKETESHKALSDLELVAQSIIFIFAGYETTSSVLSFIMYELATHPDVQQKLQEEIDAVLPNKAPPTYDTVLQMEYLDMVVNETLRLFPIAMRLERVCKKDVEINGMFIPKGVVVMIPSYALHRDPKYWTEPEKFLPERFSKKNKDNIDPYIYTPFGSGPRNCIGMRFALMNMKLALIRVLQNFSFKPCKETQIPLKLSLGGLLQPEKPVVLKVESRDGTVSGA
procedure.details: in vitro CYP3A4 inhibition
pIC50: −log10 of the molar value.
quantity.kind: pIC50

O=C(c1nccs1)N1CC[C@@H](Nc2nccc(-n3cc(C4CC4)nc3-c3ccccc3)n2)C1 [14a]: > 6.52

Now consider the entry below.
What reported pIC50 corresponds to O=C(c1nccs1)N1CC[C@@H](Nc2nccc(-n3cc(C4CC4)nc3-c3cccc(Cl)c3)n2)C1 [14b] on CYP3A4 (Homo sapiens, UniProt P08684)?
> 6.52

###

procedure.details: in vitro
Parameters: species or system primary non-human primate hepatocytes
experimental.context: monkey, primary hepatocytes
quantity.kind: CC50 at 96 h

Cc1cn(-c2ccnc(N[C@@H]3CCN(C(=O)c4nccs4)C3)n2)c(-c2ccccc2)n1 [10a]: > 20 µM

Consider the record given below.
State the recorded CC50 at 96 h for this entry: O=C(c1nccs1)N1CC[C@@H](Nc2nccc(-n3cc(C4CC4)nc3-c3cccc(Cl)c3)n2)C1 [14b]
> 20 µM

###

system.tested: UniProt P10635
Sequence (P10635 whole entry): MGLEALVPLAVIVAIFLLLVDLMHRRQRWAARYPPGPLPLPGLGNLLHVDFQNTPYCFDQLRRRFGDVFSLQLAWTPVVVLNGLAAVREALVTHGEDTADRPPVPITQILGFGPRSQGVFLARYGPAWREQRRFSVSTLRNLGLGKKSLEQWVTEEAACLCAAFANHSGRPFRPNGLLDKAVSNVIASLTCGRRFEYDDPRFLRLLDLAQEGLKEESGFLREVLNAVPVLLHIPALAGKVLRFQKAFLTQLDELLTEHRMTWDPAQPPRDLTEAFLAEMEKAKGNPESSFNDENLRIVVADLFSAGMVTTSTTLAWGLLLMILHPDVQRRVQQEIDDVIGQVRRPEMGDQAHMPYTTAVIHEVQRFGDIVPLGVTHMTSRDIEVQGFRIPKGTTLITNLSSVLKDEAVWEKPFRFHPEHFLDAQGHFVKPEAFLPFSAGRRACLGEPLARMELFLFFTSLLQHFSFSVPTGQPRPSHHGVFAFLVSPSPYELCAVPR
quantity.kind: IC50

I would be grateful if you could share the reported IC50 for Cc1cn(-c2ccnc(N[C@@H]3CCN(C(=O)c4nccs4)C3)n2)c(-c2ccccc2)n1 [10a] .
> 10 µM

###

procedure.details: in vitro
Design: species or system primary non-human primate hepatocytes
experimental.context: monkey, primary hepatocytes
quantity.kind: CC50 at 96 h

Name the reported CC50 at 96 h value associated with the molecule Cc1cn(-c2ccnc(N[C@@H]3CCN(C(=O)c4nccs4)C3)n2)c(-c2ccccc2)n1 [10a]
> 20 µM

Data request, read-out CC50 at 96 h, for O=C(c1nccs1)N1CC[C@@H](Nc2nccc(-n3cc(C4CC4)nc3-c3cccc(Cl)c3)n2)C1 [14b]
> 20 µM

###

system.tested: PfPKG (Plasmodium falciparum, UniProt Q8I719)
Sequence (Q8I719 whole entry): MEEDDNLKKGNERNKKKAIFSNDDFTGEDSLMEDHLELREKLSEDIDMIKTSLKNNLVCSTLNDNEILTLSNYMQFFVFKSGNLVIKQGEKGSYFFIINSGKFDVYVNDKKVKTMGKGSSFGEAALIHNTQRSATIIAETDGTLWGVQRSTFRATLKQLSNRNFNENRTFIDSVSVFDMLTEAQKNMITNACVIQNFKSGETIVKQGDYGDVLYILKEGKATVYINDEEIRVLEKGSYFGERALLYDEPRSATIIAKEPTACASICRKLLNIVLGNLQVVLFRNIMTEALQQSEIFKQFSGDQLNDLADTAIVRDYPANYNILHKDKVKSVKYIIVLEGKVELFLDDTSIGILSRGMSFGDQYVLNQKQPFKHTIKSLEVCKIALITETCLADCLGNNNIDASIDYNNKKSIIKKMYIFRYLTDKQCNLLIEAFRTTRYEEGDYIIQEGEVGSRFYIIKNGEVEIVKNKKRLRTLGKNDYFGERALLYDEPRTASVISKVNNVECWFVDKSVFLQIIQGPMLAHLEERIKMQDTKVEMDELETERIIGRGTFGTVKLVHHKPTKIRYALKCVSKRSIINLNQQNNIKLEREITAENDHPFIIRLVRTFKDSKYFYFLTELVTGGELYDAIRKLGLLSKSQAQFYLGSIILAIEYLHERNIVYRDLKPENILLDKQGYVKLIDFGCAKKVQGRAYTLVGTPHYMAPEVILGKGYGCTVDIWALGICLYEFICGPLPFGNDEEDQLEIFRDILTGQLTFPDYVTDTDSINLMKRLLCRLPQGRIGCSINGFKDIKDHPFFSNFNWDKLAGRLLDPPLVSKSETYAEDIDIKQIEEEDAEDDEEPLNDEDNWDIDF
pIC50: −log10 of the molar value.
quantity.kind: pIC50

COc1cccc(-c2nc(C)cn2-c2ccnc(N[C@@H]3CCN(C(=O)c4nccs4)C3)n2)c1 [18a]: 7.07

a: O=C(c1nccs1)N1CC[C@@H](Nc2nccc(-n3cc(C4CC4)nc3-c3ccccc3)n2)C1 [14a]
b: Cc1cn(-c2ccnc(N[C@@H]3CCN(C(=O)c4nccs4)C3)n2)c(-c2ccc(Cl)cc2)n1 [18c]
c: O=C(c1nccs1)N1CC[C@@H](Nc2nccc(-n3cc(C4CC4)nc3-c3cccc(Cl)c3)n2)C1 [14b]
d: Cc1cn(-c2ccnc(N[C@@H]3CCN(C(=O)c4nccs4)C3)n2)c(-c2ccccc2)n1 [10a]
Sort entries by pIC50 from minimum to maximum value. Order the labels as requested and list them.
b, d, a, c
